Task for the reader: assign each of the following compounds its reported Enzyme degradation CDK2 (% remaining) @ 10 μM.
Biological target: CDK2 (Homo sapiens, UniProt P24941)
Construct: endogenous in cells; host or cells: MDA-MB-231
Assay: CDK protein degradation activity (Western blotting), CDK2
Format: cell-based
Details: MDA-MB-231 cells, 10 μM, 16 hours, Western blot

Known Enzyme degradation CDK2 (% remaining) @ 10 μM results, listed for orientation:
O=C1CC[C@H](N2C(=O)c3cccc(N4CCC(CN5CCC(c6ccc(Nc7ncnc8c7ncn8C7CC(NC(=O)Cc8ccccc8)C7)cc6)CC5)CC4)c3C2=O)C(=O)N1 (stereo partly drawn) [Compound 291]	20/20/20%
O=C1CC[C@@H](c2ccc(OCC(=O)N3CCC(CCCN4CCN(c5ccc(Nc6ncnc7c6ncn7[C@H]6C[C@@H](NC(=O)Cc7ccccc7)C6)cc5)CC4)CC3)cc2)C(=O)N1 [Compound 258]	20/20/20%

Here is another compound to look at.
Query: Entry Cc1cccc(C(=O)NC2CC(n3cnc4c(Nc5ccc(N6CCN(C7CC8(CCN(C(=O)COc9ccc([C@@H]%10CCC(=O)NC%10=O)cc9)CC8)C7)CC6)cc5)ncnc43)C2)n1 (stereo partly drawn) [Compound 435] : reported Enzyme degradation CDK2 (% remaining) @ 10 μM = ?
Response: 40/40/40%

---

Task for the reader: assign each of the following compounds its reported Enzyme degradation CDK2 (% remaining) @ 1 μM.
Biological target: CDK2 (Homo sapiens)
Construct: endogenous in cells; host or cells: MDA-MB-231
Experiment: CDK protein degradation activity (Western blotting), CDK2
Assay type: cell-based
Settings: MDA-MB-231 cells, 1 μM, 16 hours, Western blot

Cc1cccc(C(=O)NC2CC(n3cnc4c(NCC5CCN(CC6CCN(c7ccc8c(c7)C(=O)N([C@@H]7CCC(=O)NC7=O)C8=O)CC6)CC5)ncnc43)C2)n1 (stereo partly drawn)	100/100/100%

Please go through the list and note Enzyme degradation CDK2 (% remaining) @ 1 μM for each compound.
1. O=C1CC[C@H](n2nnc3ccc(N4CCC5(CC4)CC(N4CCN(c6ccc(Nc7ncnc8c7ncn8[C@H]7C[C@@H](NC(=O)Cc8ccccc8)C7)cc6)CC4)C5)cc3c2=O)C(=O)N1
2. O=C1CC[C@H](N2C(=O)c3ccc(N4CCC(CN5CCN(c6ccc(Nc7ncnc8c7ncn8C7CC(NC(=O)c8cccc(C(F)(F)F)n8)C7)cc6)CC5)CC4)cc3C2=O)C(=O)N1 (stereo partly drawn)

Response:
1. 10/10/10%
2. 10/10/10%

---

Target: CDK9 (Homo sapiens)
Construct: endogenous in cells; host or cells: MDA-MB-231
Sequence (P50750 whole entry): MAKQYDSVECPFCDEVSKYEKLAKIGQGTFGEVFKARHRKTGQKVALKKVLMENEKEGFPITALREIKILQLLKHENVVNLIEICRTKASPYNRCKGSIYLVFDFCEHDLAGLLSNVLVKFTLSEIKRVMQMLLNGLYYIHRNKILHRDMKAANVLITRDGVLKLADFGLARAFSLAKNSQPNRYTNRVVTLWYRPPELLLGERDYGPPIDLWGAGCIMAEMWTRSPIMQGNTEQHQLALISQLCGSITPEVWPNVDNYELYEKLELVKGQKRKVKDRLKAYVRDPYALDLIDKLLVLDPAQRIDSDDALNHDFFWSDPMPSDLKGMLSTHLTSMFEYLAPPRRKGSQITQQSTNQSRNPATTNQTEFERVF
Experiment: CDK protein degradation activity (Western blotting), CDK9
Format: cell-based
Details: MDA-MB-231 cells, 10 μM, 16 hours, Western blot
measurement-label: Enzyme degradation CDK9 (% remaining) @ 10 μM

Known Enzyme degradation CDK9 (% remaining) @ 10 μM results, listed for orientation:
O=C1CCC(c2ccc(OCC(=O)N3CCC4(CC3)CC(N3CCN(c5ccc(Nc6ncnc7c6ncn7[C@H]6C[C@@H](NC(=O)Cc7ccccc7)C6)cc5)CC3)C4)cc2)C(=O)N1 (stereo partly drawn) [Compound 205]	0/0/0%
O=C1CC[C@H](N2C(=O)c3cccc(NCC(=O)N4CCC(CC(=O)N5CCN(c6ccc(Nc7ncnc8c7ncn8C7CC(NC(=O)Cc8ccccc8)C7)cc6)CC5)CC4)c3C2=O)C(=O)N1 (stereo partly drawn) [Compound 211]	30/30/30%

Here is another compound to look at.
Query: Any idea what Enzyme degradation CDK9 (% remaining) @ 10 μM came out for O=C1CC[C@H](N2C(=O)c3ccc(NCC(=O)N4CCC5(CC4)CC(N4CCC(c6ccc(Nc7ncnc8c7ncn8[C@H]7C[C@@H](NC(=O)Cc8ccccc8)C7)cc6)CC4)C5)cc3C2=O)C(=O)N1 (racemic) [Compound 296] on CDK9 (Homo sapiens)?
Response: 0/0/0%
